Where these numbers come from: PubChem BioAssay (NCI)

System: SF-295 CNS
Assay: NCI-60 one-dose screen, 48 h (100 = growth as untreated, 0 = no growth, -100 = all killed)
Conditions: 10 µM
Compounds without any hit were thinned out: in the full panel of roughly 83,000, 20% have a hit.
measurement-label: growth (%)
One number for each entry, in %.

Known results for compounds:
- compound: "N#Cc1ccc(-c2nn(-c3ccc(C(=O)O)cc3)cc2CNc2cccc(Br)c2)cc1"
  growth [%]: 42.5
- compound: "COc1cc(/C=C/C(=O)c2ccc(C(F)(F)F)cc2)ccc1Oc1nc(Nc2ccc(F)cc2)nc(N(C)C)n1"
  growth [%]: 64.1
- compound: "C=CC(=O)Nc1ccc(C(=O)/C=C/c2ccc(N(C)CCF)cc2)c(O)c1"
  growth [%]: -4.58
- compound: "CCCCSc1nc(Nc2ccc(/C(C)=N/NC(N)=S)cc2)c(C#N)c(-c2ccc(OC)cc2)n1"
  growth [%]: 69.7
- compound: "O=S(=O)(Nc1ncccn1)c1ccc(-n2c(-c3ccccc3)nc(-c3ccccc3)c2-c2ccccc2)cc1"
  growth [%]: 65.9

Return reported growth values for all items listed beneath this line.
1. CN1CCN(c2ccc(Nc3nc(N4CCN(S(=O)(=O)c5ccc(Cl)cc5)CC4)c4sccc4n3)cc2)CC1
2. c1ccc(C(=C(c2ccc(OCCN3CCCCC3)cc2)c2ccc(OCCN3CCCCC3)cc2)C2CCCC2)cc1
3. CC1=C(c2cc(-c3ccc(Cl)cc3)c(C#N)c(N)n2)C(c2ccccc2)NC(=S)N1 (centres undefined)
4. [2H]C([2H])([2H])Oc1ccc2ncc(C#Cc3cncc(C(=O)Nc4ccc(CN5CCN(C)CC5)c(C(F)(F)F)c4)c3)n2n1

1. -78
2. -63.8
3. 78.1
4. -77
